- Test system: RXF 393
- method notes: NCI tumour cell line growth inhibition, 48 h
Activity calls are given as the source filed them. Rule as the data show it: active = GI50 up to about 1.1 µM and inactive = higher.
Possible outcomes: active, inactive

N#CC1CNC(N)NC1N (stereo unspecified)
inactive
C=C=C(C(=O)OC)[S+]([O-])c1ccccc1[N+](=O)[O-] (stereo unspecified)
inactive
Cc1ccccc1N(CC(=O)O)S(=O)(=O)c1ccccc1
inactive
CC12CC(=O)C3C(CCC4=CC(=O)CCC43C)C1CC=C2CC(=O)O (stereo unspecified)
inactive
N#CC(C#N)=Cc1c(O)ccc2ccccc12
inactive
CC(=O)OC[C@H]1O[C@@H](O[C@H]2[C@H](OC(C)=O)C=CO[C@@H]2COC(C)=O)C(OC(C)=O)[C@H]2OC(C)(C)O[C@H]21 (stereo partly specified)
inactive
Cc1ccc(/S(Cc2ccccc2)=N\S(=O)(=O)c2ccc(C)cc2)cc1 (stereo unspecified)
inactive
Cc1c(C(=O)Nc2ccc(Cl)c(C(F)(F)F)c2)oc2cc(O)ccc2/c1=N\NC(N)=S
inactive
COc1cc(Cl)c2c3c(c(C(C)=O)oc13)CCC2
inactive
CN(C)c1ccc(C(C=C2c3ccccc3Sc3ccccc32)=C(C#N)C#N)cc1
inactive
O=C1CC(c2ccco2)C2(C(=O)NC(=O)NC2=O)C(c2ccco2)C1 (stereo unspecified)
inactive
CO[C@]12C#CC=CC#C[C@@H](O)[C@]3(CCC1)O[C@@]23c1cccc(O)c1
inactive
O=C(Oc1c(I)ccccc1=O)c1ccc([N+](=O)[O-])cc1
inactive
CC(N/N=C(\S)N1CCCCCC1)c1cccnn1 (stereo unspecified)
active
N#C/C(=C\Nc1ccccn1)C(=O)C1CC1
inactive
O=C1NC(N2CCOCC2)=N/C1=C\c1ccc(O)cc1
inactive
CCCCCCC(=O)C/C(CCC(=O)N(Cc1ccccc1)Cc1ccccc1)=N\Nc1ccc([N+](=O)[O-])cc1[N+](=O)[O-]
inactive
CCc1cccc(C(C)C)c1NC(=O)CC1Sc2ccccc2NC1=O (stereo unspecified)
inactive
CCC12C=CCN3CC[C@]4(C(=C(C(=O)OC)[C@@H]1Nc1ccn(C5OC(COC(C)=O)C(OC(C)=O)C5OC(C)=O)c(=O)n1)Nc1ccccc14)C32 (stereo partly specified)
inactive
CCOc1ccccc1NC(=O)/C=C1\NC(=O)CS1
inactive
Cc1nc(-c2nc(C)c(C(=O)/C=C/c3ccc(N(C)C)cc3)s2)sc1C(=O)/C=C/c1ccc(N(C)C)cc1
inactive

###

- Test system: SK-MEL-2
- method notes: NCI tumour cell line growth inhibition, 48 h
Active and inactive are the calls of the source. Rule as the data show it: active = GI50 up to about 1.1 µM and inactive = higher.
This listing pairs compounds with measured GI50.
endpoint label: GI50

Cn1c(=O)c2c(nc(Nc3ccc(Cl)cc3)n3c(=O)n(-c4ccccc4)c(=O)n23)n(C)c1=O
> 100 µM (inactive)
O=c1c2cc(Br)ccc2n(C2OC(CO)C(O)C(O)C2O)c(=S)n1-c1ccccc1 (centres undefined)
> 100 µM (inactive)
CCOP(=O)(OCC)C(Nc1cccc([N+](=O)[O-])c1)c1ccccc1 (centres undefined)
82.4 µM (inactive)
O=c1[nH]nc(Cc2ccccc2)n1CCCl
> 100 µM (inactive)
COc1ccc(C2SCC(=O)N2NC(=O)c2ccncc2)cc1F (centres undefined)
> 100 µM (inactive)
S=C(NN=C1NCCCCN1)Nc1ccc(Cl)cc1
22.3 µM (inactive)
CCOC(=O)C(=CNC(=S)N/N=C1\C(=O)Nc2ccccc21)C(=O)OCC
> 100 µM (inactive)
Cc1cc2c(SCc3ccccc3Cl)nc(N)nc2nc1C
> 100 µM (inactive)
Cc1cc(C)c(C2CC(O)C(CO)O2)cc1C (centres undefined)
> 100 µM (inactive)
Cc1cccc(/N=N/c2c(C)nn(C(=O)CC(=O)Nc3ccccc3)c2C)c1
> 100 µM (inactive)
CN(C)CCNC(=O)c1cccc2ccc(-c3ccncc3)nc12
4.02 µM (inactive)
CCOC(=O)/C(=C\c1ccccc1)C(=O)O
> 100 µM (inactive)
CCCCCCc1cc2cc(C(=O)Nc3ccc(F)cc3)c(=N)oc2cc1O
3.13 µM (inactive)
CN(C(=O)C12C3(C(=O)O)C4C5(C(=O)O)C3C1(C(=O)O)C5C42C(=O)O)C(C)(C)C (centres undefined)
> 100 µM (inactive)
N#CC1(C#N)C2(c3ccccc3)OC(c3ccccc3)(c3cc4ccccc4cc32)C1(C#N)C#N
19.4 µM (inactive)
COc1ccc2c(C(=O)c3c(C)n(CCN4CCOCC4)c4ccccc34)cccc2c1
21.3 µM (inactive)
CCOC(=O)C(O)(NC(=O)Nc1ccc(F)cc1)C(F)(F)F (centres undefined)
> 100 µM (inactive)
Cc1cc(Cl)ccc1OCC(=O)Oc1c(Cl)c(Cl)c(Cl)c(Cl)c1Cl
24.2 µM (inactive)
N/N=C1\C(OC(=O)Nc2ccccc2)=Nc2ccccc21
19.7 µM (inactive)
NC(Cc1ccccc1)P(=O)(O)O (centres undefined)
> 100 µM (inactive)
CC(Br)C(=O)Nc1ccc(C(=O)O)c(O)c1 (centres undefined)
32.4 µM (inactive)
O=C1CCC(=O)N1CNc1ccc2c(c1)Sc1ccccc1O2
18.1 µM (inactive)
CC(=O)Nc1ccc2c(C)c3c4ccccc4n(C)c3nc2n1
20.6 µM (inactive)
O=c1cn[nH]c(=S)n1/N=C/c1c[nH]c2ccccc12
> 100 µM (inactive)
Cc1cc(Cl)nc2ccc(Cc3ccc4nc(Cl)cc(C)c4c3)cc12
47.5 µM (inactive)
CCC1c2cc3n(c(=O)c2COC1O)Cc1c-3nc2ccccc2c1Cl (centres undefined)
> 100 µM (inactive)
O=c1oc2ccccc2cc1-c1cc2ccccn2c1
> 100 µM (inactive)
Cn1c(CO)ccc1-c1ccc(-c2ccc[se]2)[se]1
41.1 µM (inactive)
COc1cc2c(cc1OC)C(Cl)C(c1ccc(Cl)c(Cl)c1)=C2Cl (centres undefined)
6.84 µM (inactive)
O=C(O)C1C(=O)Oc2c(cccc2[N+](=O)[O-])C1O (centres undefined)
> 100 µM (inactive)
COc1ccc(-c2cc(=O)c3c(O)cc(C)cc3o2)cc1OC
> 100 µM (inactive)
Cc1cc2c(O)c(c1)COCc1cc(C)cc(c1O)COCc1cc(C)cc(c1O)COC2
> 100 µM (inactive)
CCOC(=O)C1=C(C)NC(=O)NC1c1ccc(OC)cc1OC (centres undefined)
> 100 µM (inactive)
COCC12CCC(OC)C34C5CC6(O)C(OC)CC(OC(C)=O)(C5C6OC(=O)c5ccccc5)C(C(OC)C13)C4N(C)C2 (centres undefined)
> 100 µM (inactive)
Nc1c(-c2ccccc2)c2ccc([N+](=O)[O-])cc2c(=O)n1-c1cccc(C(=O)O)c1
> 100 µM (inactive)
CC(C)c1cccc(C(C)C)c1NC(=S)NN=C1C=C(C(C)(C)C)C(=O)C(C(C)(C)C)=C1
20.2 µM (inactive)
CCNC(=S)N/N=C(\C)c1cccc(C)n1
42.8 µM (inactive)
COC(=O)c1cc(O)ccc1NC(=O)c1ccc(O)cc1
> 100 µM (inactive)
O=S(=O)(O)c1cc(/N=[N+](\[O-])c2ccc(/N=N/c3ccccc3)cc2S(=O)(=O)O)ccc1/C=C/c1ccc(/N=[N+](\[O-])c2ccc(/N=N/c3ccccc3)cc2S(=O)(=O)O)cc1S(=O)(=O)O
> 100 µM (inactive)
COc1ccc2c3c1OC1C(=O)C=CC4(O)C(C2)NCC[C@@]314 (some centres undefined)
2.4 µM (inactive)
CC(=NNC(=S)Nc1ccccc1)c1cccc(C(C)=NNC(=S)Nc2ccccc2)n1
41.1 µM (inactive)
CC(=O)NC(CCCN(Cc1ccccc1)C(=O)NCCCl)C(=O)NCc1ccccc1 (centres undefined)
> 100 µM (inactive)
O=C1c2ccoc2C(=O)c2oc(=O)ccc21
6.59 µM (inactive)
C[P+](c1ccccc1)(c1ccc(Cl)cc1)c1ccc(Cl)cc1
19.9 µM (inactive)

###

This listing pairs compounds with measured GI50.
- Tested on: HCC 2998
- method notes: NCI tumour cell line growth inhibition, 48 h
Active and inactive are the calls of the source. No stated cut-off is given here; in the data, active = GI50 up to about 1.1 µM and inactive = higher.
endpoint label: GI50

CCCCCCCCCCCC(=O)c1c(O)cccc1O
19.7 µM (inactive)
O=C1CCCCCCCCCCC1CCCCCBr (configuration not stated)
18.5 µM (inactive)
N=C(N)N/N=C/c1c[nH]c2ccccc12
> 100 µM (inactive)
CC(O)C(NC(=O)C(CS)NC(=O)C(CO)NC(=O)C(CCCCN)NC(=O)C(Cc1c[nH]c2ccccc12)NC(=O)C(Cc1ccc(O)cc1)NC(=O)C(CS)NC(=O)C(N)Cc1ccccc1)C(N)=O (configuration not stated)
> 25 µM (inactive)
COc1cc(/C=C2\CCC(C)C3C2=NN(C(C)=O)C3c2cc(OC)c(OC)c(OC)c2)cc(OC)c1OC (configuration not stated)
> 100 µM (inactive)
CCC(=O)C(CCN1CCC(N2C(=O)C(CCC#N)c3ccccc32)CC1)(c1ccccc1)c1ccccc1 (configuration not stated)
12.4 µM (inactive)
Cc1cc(Cl)ccc1OCC(=O)Oc1c(Cl)c(Cl)c(Cl)c(Cl)c1Cl
25.2 µM (inactive)

Value source: ChEMBL document CHEMBL1201862
